Provenance of the data: patent US8716282B2

- assayText: Solubility as a function of pH at 20° C.
- Type: physicochemical
- assayContext: pH 3, simulated gastric fluid, thermodynamic from solid, 0.01N HCl, pH of solution 3.0, anhydrous free base
measureName: solubility

Requested field: solubility. Item: COCCc1ccc(-c2c(C)nc3c(N4CCOCC4)ccnn23)cn1
320 µg/mL

###

- assayText: Solubility as a function of pH at 20° C.
- Type: physicochemical
- assayContext: aqueous buffer, thermodynamic from solid, citrate-NaOH—HCl buffer pH 2, pH of solution 2.9, anhydrous free base
measureName: solubility (µg/mL)
The reply should be a number in µg/mL, with the unit left off.

Requested field: solubility. Item: COCCc1ccc(-c2c(C)nc3c(N4CCOCC4)ccnn23)cn1
610
